# Target Or System: TOPKA (Homo sapiens)
# Construct: purchased in-house DSF kinase panel (SGC-style construct names; the trailing letter is the construct ID)
# Sequence (Q96KB5 1-322): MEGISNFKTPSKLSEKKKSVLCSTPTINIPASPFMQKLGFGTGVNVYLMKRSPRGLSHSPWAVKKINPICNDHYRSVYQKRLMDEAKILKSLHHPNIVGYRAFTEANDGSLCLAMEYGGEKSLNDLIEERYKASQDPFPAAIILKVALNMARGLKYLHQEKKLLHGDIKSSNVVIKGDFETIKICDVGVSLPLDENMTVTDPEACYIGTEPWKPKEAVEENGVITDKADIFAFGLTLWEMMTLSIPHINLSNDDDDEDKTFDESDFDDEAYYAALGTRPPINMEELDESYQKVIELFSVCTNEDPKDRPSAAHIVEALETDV
# Measurement Description: DSF Tm panel
# Assay type: binding
# Condition Context: 10 μM compound
Rule: ΔTm at 10 µM below 0.5 °C gives met, anything at or above gives not met.

Take a look at these entries with their results.
| Query Smiles | Category Label |
| --- | --- |
| O=C(NCc1ccc(Cl)cc1F)Nc1ccc2cc1OCCOCCNc1ccn3ncc-2c3n1 | not met |
| O=C(NCc1ccc(Cl)cc1Cl)Nc1ccc2cc1OCCOCCNc1ccn3ncc-2c3n1 | not met |
| Cc1cc(Cl)ccc1CNC(=O)Nc1ccc2cc1OCCOCCNc1ccn3ncc-2c3n1 | not met |
| CN1CCN(C(=O)Nc2ccc3cc2OCCOCCNc2ccn4ncc-3c4n2)CC1 | met |

Exam item: For this compound, is ΔTm at 10 µM lower than 0.5 °C? O=C(NCc1ccccc1)Nc1ccc2cc1OCCOCCNc1ccn3ncc-2c3n1
Marked response: met

Exam item: For this compound, is ΔTm at 10 µM lower than 0.5 °C? O=C(NCc1ccccc1Cl)Nc1ccc2cc1OCCOCCNc1ccn3ncc-2c3n1
Marked response: met

Exam item: For this compound, is ΔTm at 10 µM lower than 0.5 °C? O=C(NCc1ccc(Cl)cc1)Nc1ccc2cc1OCCOCCNc1ccn3ncc-2c3n1
Marked response: met
